Molecular target: Methionine aminopeptidase (Staphylococcus aureus (strain COL))
Sequence (Q5HEN6 whole entry): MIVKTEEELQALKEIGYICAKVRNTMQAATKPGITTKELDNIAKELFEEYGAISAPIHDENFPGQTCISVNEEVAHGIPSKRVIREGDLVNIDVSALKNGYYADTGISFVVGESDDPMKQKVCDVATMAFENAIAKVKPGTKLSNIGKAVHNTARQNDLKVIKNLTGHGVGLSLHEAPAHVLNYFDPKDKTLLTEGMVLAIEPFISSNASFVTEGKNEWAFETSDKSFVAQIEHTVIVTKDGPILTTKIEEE
Assay: Inhibition of N-terminal poly-His-tagged Staphylococcus aureus COL MetAP expressed in Escherichia coli BL21(DE3) incubated for 30 mins before MGMM substrate addition by fluorescence assay
Parameters: species or system Staphylococcus aureus subsp. aureus COL
Details: read-out: IC50
So basically, if IC50 comes in under 30 µM it's condition met, and if it's 30 µM or more it's condition not met.

Study these solved cases before continuing.
molecule: CN(C)CC1Cc2c(cccc2C(F)(F)F)C1=O.Cl (configuration not stated)
study_system: Methionine aminopeptidase (Staphylococcus aureus (strain COL))
classification: condition not met
//
molecule: CN(C)CC1Cc2ccccc2C1=O.Cl (configuration not stated)
study_system: Methionine aminopeptidase (Staphylococcus aureus (strain COL))
classification: condition met

Query block: Please indicate whether the reported IC50 of COc1ccc2c(c1)CC(CN(C)C)C2=O.Cl (configuration not stated) is strictly below 30 µM.
Result block: condition not met

Query block: Please indicate whether the reported IC50 of CN(C)CC1Cc2cc(Cl)ccc2C1=O.Cl (configuration not stated) is strictly below 30 µM.
Result block: condition met

Query block: Please indicate whether the reported IC50 of Cc1ccc2c(c1)C(=O)C(CN(C)C)C2.Cl (configuration not stated) is strictly below 30 µM.
Result block: condition met

Query block: Please indicate whether the reported IC50 of C=C1Cc2cc(C)ccc2C1=O is strictly below 30 µM.
Result block: condition met

Query block: Please indicate whether the reported IC50 of Cl.O=C1c2ccccc2CC1CN1CCCCC1 (configuration not stated) is strictly below 30 µM.
Result block: condition met

----------
System: A-431
Test: Cytotoxicity against human A431 cells at 1.6 to 100 ug/ml after 72 hrs by crystal violet assay
Format: functional, cell-based
Calls of active or inactive are those of the source. The rule behind the calls is not given here.
Result category, one only: 1.0 for active, 0.0 for inactive

Study these solved cases before continuing.
compound: Cc1cc(C)c2c(c1)C(=O)C(CN(C)C)CC2.Cl (centres undefined)
classification: 1.0

compound: COc1ccc2c(c1)C(=O)C(CN(C)C)C2.Cl (centres undefined)
classification: 1.0

compound: CN(C)CCC(=O)c1ccccc1.Cl
classification: 1.0

compound: COc1ccc2c(c1)C(=O)C(CN1CCCCC1)CC2.Cl (centres undefined)
classification: 1.0

compound: CN(C)CC1Cc2ccccc2C1=O.Cl (centres undefined)
classification: 1.0

compound: COc1ccc2c(c1)CC(CN(C)C)C2=O.Cl (centres undefined)
classification: 1.0

compound: C=C1Cc2ccc(OC)cc2C1=O
classification: 1.0

compound: C=C1Cc2cc(C)ccc2C1=O
classification: 1.0

Query block: Hi team, can someone confirm the assay call for Cc1ccc2c(c1)C(=O)C(CN(C)C)C2.Cl (centres undefined) ?
Result block: 1.0

Query block: Hi team, can someone confirm the assay call for CN(C)CC1Cc2cc(Br)ccc2C1=O.Cl (centres undefined) ?
Result block: 1.0

Query block: Hi team, can someone confirm the assay call for COc1cccc(C(=O)CCN(C)C)c1.Cl ?
Result block: 1.0

Query block: Hi team, can someone confirm the assay call for CCC(CN(C)C)C(=O)c1ccccc1.Cl (centres undefined) ?
Result block: 1.0

Query block: Hi team, can someone confirm the assay call for CN(C)CC1Cc2cc(Cl)ccc2C1=O.Cl (centres undefined) ?
Result block: 1.0

Query block: Hi team, can someone confirm the assay call for COc1cc2c(cc1OC)C(=O)C(CN(C)C)C2.Cl (centres undefined) ?
Result block: 1.0

Query block: Hi team, can someone confirm the assay call for C=C1CCc2ccc(OC)cc2C1=O ?
Result block: 1.0

Query block: Hi team, can someone confirm the assay call for C=C1CCc2ccccc2C1=O ?
Result block: 1.0

Query block: Hi team, can someone confirm the assay call for COc1cccc(C(=O)CCN2CCCCC2)c1.Cl ?
Result block: 1.0

Query block: Hi team, can someone confirm the assay call for CC1CC(CN(C)C)C(=O)c2ccccc21.Cl (centres undefined) ?
Result block: 1.0

----------
Biological target: Methionine aminopeptidase (Escherichia coli K-12)
Sequence (P0AE18 whole entry): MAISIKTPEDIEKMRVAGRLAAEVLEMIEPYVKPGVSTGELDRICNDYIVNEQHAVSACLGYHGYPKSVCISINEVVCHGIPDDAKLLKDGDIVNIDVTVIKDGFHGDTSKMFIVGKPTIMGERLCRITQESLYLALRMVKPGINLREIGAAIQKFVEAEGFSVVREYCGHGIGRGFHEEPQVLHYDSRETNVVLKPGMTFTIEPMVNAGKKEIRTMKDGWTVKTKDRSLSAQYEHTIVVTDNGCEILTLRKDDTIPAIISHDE
Assay: Inhibition of C-terminal poly-His-tagged Escherichia coli MetAP expressed in Escherichia coli BL21(DE3) incubated for 30 mins before MGMM substrate addition by fluorescence assay
Settings: read-out: IC50
So basically, if IC50 comes in under 1 µM it's 1 (yes), and if it's 1 µM or more it's 0 (no).

Query block: Please indicate whether the reported IC50 of COc1ccc2c(c1)CC(CN(C)C)C2=O.Cl (centres undefined) is strictly below 1 µM.
Result block: 0 (no)

----------
Quick reference for half-life at 250 µM among some compounds
Assay: Half life assessed as decomposition into amines and unsaturated ketones at 250 uM in 50 mM Tris/maleate pH 7.5 buffer by HPLC method
Assay type: physicochemical
Settings: Tris/maleate buffer, pH 7.5
The reply should be a number in min, with the unit left off.

compound: Cl.O=C1c2ccccc2CC1CN1CCCCC1 (configuration not stated)
output_unit: min
reported_value: 16
//
compound: CN(C)CC1Cc2cc(Br)ccc2C1=O.Cl (configuration not stated)
output_unit: min
reported_value: 6

Query block: Reported half-life at 250 µM for Cl.O=C1c2ccccc2CCC1CN1CCCCC1 (configuration not stated) : what is it?
Result block: 866

Query block: Reported half-life at 250 µM for Cc1ccc2c(c1)CC(CN(C)C)C2=O.Cl (configuration not stated) : what is it?
Result block: 24

Query block: Reported half-life at 250 µM for CN(C)CC1Cc2cc(Cl)ccc2C1=O.Cl (configuration not stated) : what is it?
Result block: 7

Query block: Reported half-life at 250 µM for COc1cc2c(cc1OC)C(=O)C(CN(C)C)C2.Cl (configuration not stated) : what is it?
Result block: 56

Query block: Reported half-life at 250 µM for CN(C)CC1CCc2sccc2C1=O.Cl (configuration not stated) : what is it?
Result block: 6930

----------
Test system: A-431
Assay: Cytotoxicity against human A431 cells at 1.6 to 100 ug/ml after 72 hrs by crystal violet assay
Assay type: functional, cell-based
Calls of active or inactive are those of the source. The calls are words filed in the database; no cut-off is given here.
Result category, one only: true (active), false (inactive)

Study these solved cases before continuing.
compound: C=C1Cc2cc(OC)c(OC)cc2C1=O
classification: true

compound: CN(C)CC1(C)Cc2ccccc2C1=O.Cl (stereo unspecified)
classification: false

compound: CN(C)CC1CCc2ccccc2C1=O.Cl (stereo unspecified)
classification: true

compound: CN(C)CC1CCc2sccc2C1=O.Cl (stereo unspecified)
classification: true

compound: COc1ccc2c(c1)C(=O)C(CN(C)C)CC2.Cl (stereo unspecified)
classification: true

Query block: Hi team, can someone confirm the assay call for C=C1Cc2cc(Cl)ccc2C1=O ?
Result block: true

Query block: Hi team, can someone confirm the assay call for C=C1Cc2cc(OC)ccc2C1=O ?
Result block: true

Query block: Hi team, can someone confirm the assay call for COc1ccc(C(=O)CCN(C)C)cc1.Cl ?
Result block: true

Query block: Hi team, can someone confirm the assay call for CN(C)CC1Cc2c(cccc2C(F)(F)F)C1=O.Cl (stereo unspecified) ?
Result block: true

Query block: Hi team, can someone confirm the assay call for Cl.O=C1c2ccccc2CCC1CN1CCCCC1 (stereo unspecified) ?
Result block: true

----------
Target: Methionine aminopeptidase (Escherichia coli K-12, UniProt P0AE18)
Experiment: Inhibition of C-terminal poly-His-tagged Escherichia coli MetAP expressed in Escherichia coli BL21(DE3) incubated for 30 mins before MGMM substrate addition by fluorescence assay
Settings: read-out: IC50
readout_type: IC50 (nM)
The reply should be a number in nM, with the unit left off.

The examples below pair each entry with its known result.
molecule: CN(C)CC1CCc2sccc2C1=O.Cl (stereo not drawn)
study_system: Methionine aminopeptidase (Escherichia coli K-12, UniProt P0AE18)
output_unit: nM
IC50: 60800
//
molecule: C=C1Cc2cc(Cl)ccc2C1=O
study_system: Methionine aminopeptidase (Escherichia coli K-12, UniProt P0AE18)
output_unit: nM
IC50: 230
//
molecule: COc1ccc2c(c1)C(=O)C(CN(C)C)CC2.Cl (stereo not drawn)
study_system: Methionine aminopeptidase (Escherichia coli K-12, UniProt P0AE18)
output_unit: nM
IC50: 2100
//
molecule: C=C1Cc2ccc(C)cc2C1=O
study_system: Methionine aminopeptidase (Escherichia coli K-12, UniProt P0AE18)
output_unit: nM
IC50: 800
//
molecule: CN(C)CC1Cc2cc(Br)ccc2C1=O.Cl (stereo not drawn)
study_system: Methionine aminopeptidase (Escherichia coli K-12, UniProt P0AE18)
output_unit: nM
IC50: 720
//
molecule: CN(C)CC1Cc2ccccc2C1=O.Cl (stereo not drawn)
study_system: Methionine aminopeptidase (Escherichia coli K-12, UniProt P0AE18)
output_unit: nM
IC50: 2800

Query block: Record COc1ccc2c(c1)C(=O)C(CN1CCCCC1)CC2.Cl (stereo not drawn) : what is its IC50 with Methionine aminopeptidase (Escherichia coli K-12, UniProt P0AE18)?
Result block: 3700

Query block: Record CN(C)CC1CCc2ccccc2C1=O.Cl (stereo not drawn) : what is its IC50 with Methionine aminopeptidase (Escherichia coli K-12, UniProt P0AE18)?
Result block: 8400

Query block: Record CC1CC(CN(C)C)C(=O)c2ccccc21.Cl (stereo not drawn) : what is its IC50 with Methionine aminopeptidase (Escherichia coli K-12, UniProt P0AE18)?
Result block: 3800

Query block: Record COc1ccc2c(c1)C(=O)C(CN(C)C)C2.Cl (stereo not drawn) : what is its IC50 with Methionine aminopeptidase (Escherichia coli K-12, UniProt P0AE18)?
Result block: 830

Query block: Record Cc1ccc2c(c1)CC(CN(C)C)C2=O.Cl (stereo not drawn) : what is its IC50 with Methionine aminopeptidase (Escherichia coli K-12, UniProt P0AE18)?
Result block: 1100

Query block: Record C=C1Cc2ccc(OC)cc2C1=O : what is its IC50 with Methionine aminopeptidase (Escherichia coli K-12, UniProt P0AE18)?
Result block: 670

Query block: Record C=C1Cc2cc(OC)ccc2C1=O : what is its IC50 with Methionine aminopeptidase (Escherichia coli K-12, UniProt P0AE18)?
Result block: 980
